Assay Explanation: Selectivity for rat recombinant FAAH over TGH
Each record is given true (1) if its reported Ratio IC50 is strictly below 70. Records at or above 70 are given false (0).

N#Cc1cnc(C(=O)CCc2ccc(Oc3ccccc3)cc2)o1: true (1)
O=C(CCc1ccc(-c2ccccc2)cc1)c1ncco1: true (1)
O=C(O)c1cccc(-c2cnc(C(=O)CCc3ccc(Oc4ccccc4)cc3)o2)n1: false (0)
O=C(O)c1cccc(-c2cnc(C(=O)CCc3ccc(-c4ccccc4)cc3)o2)n1: false (0)
O=C(CCc1ccc(COc2ccccc2)cc1)c1ncco1: true (1)

Exam item: Take the compound "O=C(O)c1cccc(-c2cnc(C(=O)CCCCCCc3ccccc3)o2)n1" and say whether its Ratio IC50 is less than 70.
Marked response: false (0)

Exam item: Take the compound "O=C(CCc1ccc(COc2ccccc2)cc1)c1ncc(-c2cccc(-c3nnn[nH]3)n2)o1" and say whether its Ratio IC50 is less than 70.
Marked response: false (0)

Exam item: Take the compound "O=C(O)c1cnc(C(=O)CCCCCCc2ccccc2)o1" and say whether its Ratio IC50 is less than 70.
Marked response: false (0)

Exam item: Take the compound "O=C(O)c1cccc(-c2cnc(C(=O)CCc3ccc(COc4ccccc4)cc3)o2)n1" and say whether its Ratio IC50 is less than 70.
Marked response: false (0)

====

Experimental System: Fatty-acid amide hydrolase 1 (Rattus norvegicus)
Sequence (P97612 whole entry): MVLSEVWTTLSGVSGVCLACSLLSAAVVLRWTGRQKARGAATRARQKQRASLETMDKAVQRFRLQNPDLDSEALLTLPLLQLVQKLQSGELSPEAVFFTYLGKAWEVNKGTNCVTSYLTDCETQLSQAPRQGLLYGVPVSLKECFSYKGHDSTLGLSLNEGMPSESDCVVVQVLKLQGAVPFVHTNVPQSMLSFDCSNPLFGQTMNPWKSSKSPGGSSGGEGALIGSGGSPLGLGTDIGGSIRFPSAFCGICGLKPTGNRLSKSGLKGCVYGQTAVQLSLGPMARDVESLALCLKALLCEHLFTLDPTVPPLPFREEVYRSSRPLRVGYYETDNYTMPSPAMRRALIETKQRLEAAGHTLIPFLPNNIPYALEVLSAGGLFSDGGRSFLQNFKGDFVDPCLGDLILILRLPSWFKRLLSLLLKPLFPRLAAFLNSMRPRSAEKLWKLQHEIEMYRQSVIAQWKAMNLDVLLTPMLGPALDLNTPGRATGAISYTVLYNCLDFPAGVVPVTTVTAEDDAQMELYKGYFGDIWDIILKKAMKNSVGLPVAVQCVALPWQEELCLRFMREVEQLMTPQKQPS
Assay Explanation: Inhibition of rat recombinant FAAH expressed in Escherichia coli
Readout: IC50 (nM)
Give bare numbers, in nM.

O=C(O)c1cnc(C(=O)CCc2ccc(COc3ccccc3)cc2)o1: 50

Value sought for every listed molecule: IC50.
1. O=C(O)c1cnc(C(=O)CCc2ccc(Oc3ccccc3)cc2)o1
2. N#Cc1cnc(C(=O)CCc2ccc(Oc3ccccc3)cc2)o1
3. O=C(O)c1cccc(-c2cnc(C(=O)CCc3ccc(COc4ccccc4)cc3)o2)n1
4. O=C(O)c1cnc(C(=O)CCc2ccc(-c3ccccc3)cc2)o1
5. O=C(CCCCCCc1ccccc1)c1ncco1

Marked response:
1: 80; 2: 5; 3: 40; 4: 20; 5: 2500

====

Reported IC50 values, Liver carboxylesterase 1 (Homo sapiens, UniProt P23141).
One number for each entry, in µM.

O=C(CCc1ccc(COc2ccccc2)cc1)c1ncc(-c2ccccn2)o1: 2
O=C(CCc1ccc(Oc2ccccc2)cc1)c1ncco1: 0.03
O=C(CCc1ccc(-c2ccccc2)cc1)c1ncco1: 0.0045

Value sought for every listed compound: IC50.
1. O=C(CCc1ccc(COc2ccccc2)cc1)c1ncc(-c2cccc(-c3nnn[nH]3)n2)o1
2. O=C(CCc1ccc(-c2ccccc2)cc1)c1ncc(-c2cccc(-c3nnn[nH]3)n2)o1

Marked response:
1. 90
2. 7

====

Reported IC50 values, Neutral cholesterol ester hydrolase 1 (Homo sapiens, UniProt Q6PIU2).

Worked examples, 2 compounds total:
O=C(CCc1ccc(Oc2ccccc2)cc1)c1ncc(-c2ccccn2)o1: > 100 µM
O=C(CCc1ccc(Oc2ccccc2)cc1)c1ncco1: > 100 µM

Consider now this further compound.
Exam item: Give the value of IC50 reported for the following: "O=C(CCc1ccc(-c2ccccc2)cc1)c1ncco1"
Marked response: > 100 µM

====

Assay Explanation: Selectivity for rat recombinant FAAH over KIAA1363
Readout: Ratio IC50

Worked examples, 5 molecules total:
O=C(O)c1cnc(C(=O)CCc2ccc(COc3ccccc3)cc2)o1: > 2000
O=C(CCc1ccc(Oc2ccccc2)cc1)c1ncco1: > 200
N#Cc1cnc(C(=O)CCc2ccc(COc3ccccc3)cc2)o1: 9500
O=C(CCCCCCc1ccccc1)c1ncc(-c2cccc(-c3nnn[nH]3)n2)o1: > 200
O=C(CCc1ccc(-c2ccccc2)cc1)c1ncc(-c2cccc(-c3nnn[nH]3)n2)o1: > 1000

Value sought for every listed molecule: Ratio IC50.
1. O=C(O)c1cccc(-c2cnc(C(=O)CCc3ccc(-c4ccccc4)cc3)o2)n1
2. O=C(O)c1cnc(C(=O)CCc2ccc(Oc3ccccc3)cc2)o1
3. O=C(O)c1cccc(-c2cnc(C(=O)CCc3ccc(Oc4ccccc4)cc3)o2)n1
4. O=C(O)c1cccc(-c2cnc(C(=O)CCc3ccc(COc4ccccc4)cc3)o2)n1
5. O=C(O)c1cccc(-c2cnc(C(=O)CCCCCCc3ccccc3)o2)n1
6. N#Cc1cnc(C(=O)CCc2ccc(Oc3ccccc3)cc2)o1

Marked response:
1. > 17000
2. > 1250
3. > 5000
4. > 2500
5. > 1000
6. 4000

Value sought for every listed molecule: Ratio IC50.
1. O=C(O)c1cnc(C(=O)CCc2ccc(-c3ccccc3)cc2)o1
2. O=C(O)c1cnc(C(=O)CCCCCCc2ccccc2)o1
3. O=C(CCc1ccc(COc2ccccc2)cc1)c1ncc(-c2ccccn2)o1
4. O=C(CCc1ccc(COc2ccccc2)cc1)c1ncc(-c2cccc(-c3nnn[nH]3)n2)o1
5. N#Cc1cnc(C(=O)CCc2ccc(-c3ccccc3)cc2)o1
6. O=C(CCc1ccc(COc2ccccc2)cc1)c1ncco1
7. O=C(CCc1ccc(-c2ccccc2)cc1)c1ncco1

Marked response:
> 5000
> 50000
> 50000
> 550
64000
> 370
> 550
